- measurement_description: chemical genetic growth profiling, strain panel (AID 1159580);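 further: tested at 20 µM; growth read once vehicle control cultures reached saturation at 30 °C; 1 = growth at the plate median or of vehicle wells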
- experimental_context: S. cerevisiae deletion strains, growth OD, locus YJL168C, strain set2
Out of some 5,500 compounds screened, about 2,000 (36%) were called active. About 18% were inconclusive and are not listed. No stated cut-off is given here; in the data, active means normalized growth mostly below about 0.91 (no sharp cut-off); inconclusive means no clear call, values can overlap the other calls; inactive means mostly above about 0.92. The list shows a part of the results.
Can you answer with just one of these options? True (active), False (inactive)

## Task Given CCCCOc1cc(C(=O)NCCN(CC)CC)c2ccccc2n1 , state the outcome it received in this test.
## Result False

***
## Task Fill in: this test's call for CN[C@@H]1C(O)[C@@H](O[C@@H]2[C@@H](O)[C@H](O[C@H]3OC(CN)=CC[C@H]3N)[C@@H](N)C[C@H]2N)OC[C@]1(C)O (some centres not stated) is ___
## Result False

## Task Another compound: NC(=NCCC[C@H](N)C(=O)O)N[N+](=O)[O-]
## Result False

## Task Next up: COC(=O)C1OC(=O)C2OC23C1(C)CCC1C2(C)C(OC(C)=O)CC(OC(C)=O)C(C)(C)C2CC(=O)C13C (configuration not stated)
## Result False

## Task // repeat for CC/C(=C(/CC)c1ccc(O)cc1)c1ccc(O)cc1 and report
## Result False

## Task Consider next the compound C[C@@H]1CC[C@@]2(OC1)OC1CC3C4CC=C5C[C@@H](O)CC[C@]5(C)C4CC[C@]3(C)C1[C@@H]2C (some centres not stated) in the same way.
## Result False

## Task Could you do the same for C[C@@H]1O[C@@H](OC[C@H]2OC(Oc3c(-c4ccc(O)c(O)c4)oc4cc(O)cc(O)c4c3=O)[C@H](O)[C@@H](O)[C@@H]2O)[C@H](O)[C@H](O)[C@H]1O (some centres not stated) , please?
## Result False

## Task One more compound: CO[C@@]1(NC(=O)C(C(=O)O)c2ccc(O)cc2)C(=O)N2C(C(=O)O)=C(CSc3nnnn3C)CO[C@@H]21 (some centres not stated)
## Result False

----------
Catalogue of compounds with associated normalized growth
- measurement_description: chemical genetic growth profiling, strain panel (AID 1159580);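 further: tested at 20 µM; growth read once vehicle control cultures reached saturation at 30 °C; 1 = growth at the plate median or of vehicle wells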
- experimental_context: S. cerevisiae deletion strains, growth OD, locus YML016C, strain PPZ1, stronger effect = lower value
The campaign covered roughly 5,500 compounds. About 2,000 (36%) were called active. Inconclusive results (about 18%) are left out. This is one part of the list.
Kindly provide the number alone.

## Task Look at this compound and give its reported normalized growth. C[C@@H]1O[C@@H](OC[C@H]2OC(Oc3c(-c4ccc(O)c(O)c4)oc4cc(O)cc(O)c4c3=O)[C@H](O)[C@@H](O)[C@@H]2O)[C@H](O)[C@H](O)[C@H]1O (stereo partly specified)
## Result 1.01

## Task Here is the next compound: CC(C)(C)NCC(O)c1cc(O)cc(O)c1 (stereo unspecified)
## Result 0.992

## Task Okay, and CCC1OC(=O)[C@H](C)C(=O)[C@H](C)[C@@H](OC2O[C@H](C)C[C@H](N(C)C)[C@H]2O)[C@](C)(OC)C2(CCCn3cnc(-c4cccnc4)c3)C[C@@H](C)C(=O)[C@H](C)[C@H]3N(C2)C(=O)O[C@]13C (stereo partly specified) ?
## Result 1.01

Next:
## Task Which normalized growth is listed for CC1CC[C@]2(NC1)O[C@H]1CC3C4CC[C@H]5C[C@@H](O)CC[C@]5(C)C4CC[C@]3(C)[C@H]1[C@@H]2C (stereo partly specified) ?
## Result 0.0661

## Task Another compound to look at: O=C(O[C@@H]1Cc2c(O)cc(O)cc2O[C@@H]1c1cc(O)c(=O)c2c(O)c(O)cc([C@H]3Oc4cc(O)cc(O)c4C[C@H]3O)c2c1)c1cc(O)c(O)c(O)c1
## Result 0.111

## Task Then what about the compound C[C@@H]1CC[C@@]2(NC1)O[C@H]1C[C@H]3C4CC=C5C[C@@H](O)CC[C@]5(C)C4CC[C@]3(C)C1[C@@H]2C (stereo partly specified) ?
## Result 0.0701

## Task Now consider NC(CSCSCC(N)C(=O)O)C(=O)O (stereo unspecified) .
## Result 1

## Task Can you handle C[C@@H]1CC[C@@]2(OC1)O[C@H]1CC3C4CC[C@H]5C[C@@H](O)CC[C@]5(C)C4CC[C@]3(C)[C@H]1[C@@H]2C (stereo partly specified) next?
## Result 1

## Task Please answer likewise for O=C(O[C@@H]1Cc2c(O)cc(O)cc2O[C@@H]1c1cc(O)c(=O)c2c(O)c(O)cc([C@H]3Oc4cc(O)cc(O)c4C[C@H]3OC(=O)c3cc(O)c(O)c(O)c3)c2c1)c1cc(O)c(O)c(O)c1
## Result 0.482

## Task Same question, OCC(O)C(O)C(O)C(O)C(O)CO (stereo unspecified) this time
## Result 0.988

## Task Please do the same for COc1cccc2c(C)cc(=O)[nH]c12 as well.
## Result 0.958

## Task Input CC1CC[C@@]2(OC1)O[C@H]1CC3C4CC[C@@H]5C[C@@H](O)CC[C@]5(C)C4CC[C@]3(C)[C@H]1[C@@H]2C (stereo partly specified)
## Result 1.02

## Task Here is the next compound: NC(=O)NCC(N)C(=O)O (stereo unspecified)
## Result 1.01

## Task COc1ccc(-c2oc3cc(O[C@H]4O[C@H](CO)[C@@H](O)[C@H](O)[C@H]4O)c(OC)c(O)c3c(=O)c2OC)cc1O , same question.
## Result 0.994

## Task Now the compound CO[C@@]1(NC(=O)C(C(=O)O)c2ccc(O)cc2)C(=O)N2C(C(=O)O)=C(CSc3nnnn3C)CO[C@@H]21 (stereo partly specified)
## Result 1

## Task Now the compound Cc1[nH]ccc2c1[nH]c1cc(=O)ccc12
## Result 1.01

----------
- measurement_description: chemical genetic growth profiling, strain panel (AID 1159580);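 further: tested at 20 µM; growth read once vehicle control cultures reached saturation at 30 °C; 1 = growth at the plate median or of vehicle wells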
- experimental_context: S. cerevisiae deletion strains, growth OD, locus YBR231C, strain swc5
Among all 5,500 compounds or so, about 2,000 (36%) were called active. About 18% were inconclusive and are not listed. No stated cut-off is given here; in the data, active means normalized growth mostly below about 0.91 (no sharp cut-off); inconclusive means no clear call, values can overlap the other calls; inactive means mostly above about 0.92. This is one part of the list.
Give your call using only these classes: active, inactive

## Task // param item: COc1cc(O)c2c(=O)c(O)c(-c3ccc(O)c(O)c3)oc2c1 ; yields the recorded call
## Result active

## Task Then this compound: COc1cc(OC)c2c(=O)c(O)c(-c3ccc(OC)c(OC)c3)oc2c1
## Result active

## Task Please do the same for O=c1c(O)c(-c2ccc(O)c(O)c2)oc2c(O[C@@H]3O[C@H](CO)[C@H](O)[C@@H](O)[C@H]3O)c(O)cc(O)c12 as well.
## Result inactive

Others:
## Task State the result this test recorded for C[C@@H]1O[C@@H](OC[C@H]2OC(Oc3c(-c4ccc(OCCO)c(OCCO)c4)oc4cc(OCCO)cc(O)c4c3=O)[C@H](O)[C@@H](O)[C@@H]2O)[C@H](O)[C@H](O)[C@H]1O (some centres not stated) .
## Result inactive

## Task Quick one: NC(=O)c1ncn([C@@H]2O[C@H](CO)[C@@H](O)[C@H]2O)n1
## Result inactive

## Task Another compound to look at: C[C@@H]1O[C@@H](OC[C@H]2OC(Oc3c(-c4ccc(O)c(O)c4)oc4cc(O)cc(O)c4c3=O)[C@H](O)[C@@H](O)[C@@H]2O)[C@H](O)[C@H](O)[C@H]1O (some centres not stated)
## Result inactive

## Task Now give it for O=c1cc(-c2ccc(O)cc2)oc2cc(O[C@@H]3O[C@H](CO)[C@@H](O)[C@H](O)[C@H]3O)cc(O)c12 too.
## Result inactive

----------
- measurement_description: chemical genetic growth profiling, strain panel (AID 1159580);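 further: tested at 20 µM; growth read once vehicle control cultures reached saturation at 30 °C; 1 = growth at the plate median or of vehicle wells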
- experimental_context: S. cerevisiae deletion strains, growth OD, locus YDR159W, strain sac3
The campaign covered roughly 5,500 compounds. About 2,000 (36%) were called active. Inconclusive results (about 18%) are left out. Rule as the data show it: active = normalized growth mostly below about 0.91 (no sharp cut-off); inconclusive = no clear call, values can overlap the other calls; inactive = mostly above about 0.92. The list shows a part of the results.
Please answer using one outcome listed in true for active, false for inactive

Previously resolved entries follow.
## Task Outcome? CCCCOc1cc(C(=O)NCCN(CC)CC)c2ccccc2n1
## Result false

## Task Same read-out for COc1ccc(-c2cc(=O)c3c(O)cc(O[C@H]4O[C@H](CO[C@@H]5O[C@@H](C)[C@H](O)[C@@H](O)[C@H]5O)[C@@H](O)[C@H](O)[C@H]4O)cc3o2)cc1 ?
## Result false

## Task // repeat for NC(=O)c1ncn([C@@H]2O[C@H](CO)[C@@H](O)[C@H]2O)n1 and report
## Result false

## Task Same question, CC[n+]1c(-c2ccccc2)c2cc(N)ccc2c2ccc(N)cc21 this time
## Result false

## Task Can you handle CC1CC[C@]2(NC1)O[C@H]1CC3C4CC[C@H]5C[C@@H](O)CC[C@]5(C)C4CC[C@]3(C)[C@H]1[C@@H]2C (stereo partly drawn) next?
## Result true

## Task And what about the molecule CC(=O)Oc1ccc2c(c1C(C)C)CCC1C(C)(C)CCC[C@]21C (stereo partly drawn) ?
## Result false

Here is another molecule to look at.
## Task Test call for this molecule, please: C[C@@H]1CC[C@@]2(NC1)O[C@H]1C[C@H]3C4CC=C5C[C@@H](O)CC[C@]5(C)C4CC[C@]3(C)C1[C@@H]2C (stereo partly drawn)
## Result true
